experiment: Brain concentration in 5XFAD mouse at 50 mg/kg, po measured after 15 days by LC-MS/MS analysis; type: ADME, organism-based; conditions: time 15 day, read-out: Ct
measure.name: concentration at 360 h (ng/g)

a = O=C(O)c1ccc2nc(-c3cc(Cl)cc(Cl)c3)oc2c1 [TAFAMIDIS]
b = O=C(c1ccc2nc(-c3cc(Cl)cc(Cl)c3)oc2c1)N1CCNCC1
Lookup: Which numeric concentration at 360 h is bigger, that of a or that of b ? Pick one; state its label.
Found: a
(a: 223 ng/g, b: 137 ng/g)

* * *

experiment: Metabolic stability in CD1 mouse liver microsomes assessed as parent compound remaining at 10 uM measured after 0.5 hrs by LC-MS/MS analysis relative to control; assay type: ADME, Microsome; conditions: read-out: Stabilty
measure.name: remaining at 0.5 h, 1 µM (%)
Give the value in % but do not write % after it.

Lookup: Return remaining at 0.5 h, 1 µM (reported value) for this molecule: O=C(c1ccc2nc(-c3cc(Cl)cc(Cl)c3)oc2c1)N1CCNCC1
Found: 26.7

* * *

assay: Plasma concentration in 5XFAD mouse at 50 mg/kg, po measured after 15 days by LC-MS/MS analysis; assay type: ADME, organism-based; conditions: time 15 day
measure.name: concentration at 360 h (nM)

A = O=C(c1ccc2nc(-c3cc(Cl)cc(Cl)c3)oc2c1)N1CCNCC1
B = O=C(O)c1ccc2nc(-c3cc(Cl)cc(Cl)c3)oc2c1 [TAFAMIDIS]
Lookup: Which numeric concentration at 360 h is bigger, that of A or that of B ? Pick one; state its label.
Found: B

* * *

test: Metabolic stability in human liver microsomes assessed as parent compound remaining at 1 uM measured after 0.5 hrs by LC-MS/MS analysis relative to control; format: ADME, Microsome; conditions: read-out: Stabilty
measure.name: remaining at 0.5 h, 1 µM (%)
Give the value in % but do not write % after it.

Lookup: Return remaining at 0.5 h, 1 µM (reported value) for this molecule: O=C(c1ccc2nc(-c3cc(Cl)cc(Cl)c3)oc2c1)N1CCNCC1
Found: 75.4

* * *

assay: Metabolic stability in CD1 mouse liver microsomes assessed as parent compound remaining at 10 uM measured after 1 hr by LC-MS/MS analysis relative to control; type: ADME, Microsome; settings: read-out: Stabilty
measure.name: remaining at 1 h, 1 µM (%)
Give the value in % but do not write % after it.

Lookup: Return remaining at 1 h, 1 µM (reported value) for this compound: O=C(c1ccc2nc(-c3cc(Cl)cc(Cl)c3)oc2c1)N1CCNCC1
Found: 1.2

* * *

experiment: Metabolic stability in human liver microsomes assessed as parent compound remaining at 1 uM measured after 1 hr by LC-MS/MS analysis relative to control; format: ADME, Microsome; conditions: read-out: Stabilty
measure.name: remaining at 1 h, 1 µM (%)
Give the value in % but do not write % after it.

Lookup: Return remaining at 1 h, 1 µM (reported value) for this compound: O=C(c1ccc2nc(-c3cc(Cl)cc(Cl)c3)oc2c1)N1CCNCC1
Found: 70.3

* * *

experiment: Metabolic stability in mouse liver microsomes assessed as parent compound remaining after 0.5 hrs by LC-MS/MS analysis relative to control; format: ADME, Microsome; conditions: read-out: Stabilty
measure.name: remaining at 0.5 h, 1 µM (%)
Give the value in % but do not write % after it.

Lookup: Return remaining at 0.5 h, 1 µM (reported value) for this molecule: O=C(c1ccc2nc(-c3cc(Cl)cc(Cl)c3)oc2c1)N1CCNCC1
Found: 15.1
